Assay: In vivo testing of laser drilled melt extruded tube containing two sets of microparticles, plasma concentrations
Conditions: male, rat, in vivo, 14 day, subcutaneous laser drilled extruded tube implant, TMC278 139 mg/kg, compound 1 64 mg/kg, individual animals 1-4
property-name: concentration at 14 day

Supply recorded concentration at 14 day for `CC(C)CN(C[C@@H](O)[C@H](Cc1ccccc1)NC(=O)O[C@H]1CO[C@H]2OCC[C@H]21)S(=O)(=O)c1ccc2c(c1)OCO2` here.
< 2 ng/mL

====

Assay: In vivo testing of electrostatically spun tube containing two sets of microparticles, plasma concentrations
Design: species or system Sprague-Dawley rats
Settings: male, Sprague-Dawley, rat, plasma, subcutaneous, 14 day, subcutaneous electrospun tube implant, TMC278 139 mg/kg, compound 1 64 mg/kg, individual animals 1-4
Method: Tubes were electrostatically spun from a 100 mg/ml polydioxanone (IVHFIP=1.99 dl/g) hexafluoroisopropanol solution. A 4 mm mandrel was used to provide a consistent inner diameter of 4 mm. The rotational speed of the mandrel was 400 rpm, the charging voltage range was 20/−10 kV, and the pump flow rate was 10 ml/hour. […] Fiber diameters were 1-2 microns and the average pore size formed from the network of fibers was 20 microns as determined by Scanning Electron Microscopy. […]
property-name: concentration at 14 day

State its concentration at 14 day for this molecule: Cc1cc(/C=C/C#N)cc(C)c1Nc1ccnc(Nc2ccc(C#N)cc2)n1 [TMC278, rilpivirine]
< 0.4 ng/mL

====

Assay: In vivo testing of electrostatically spun tube containing two sets of microparticles, plasma concentrations
Set-up: species or system Sprague-Dawley rats
Conditions: male, Sprague-Dawley, rat, plasma, subcutaneous, 7 day, subcutaneous electrospun tube implant, TMC278 139 mg/kg, compound 1 64 mg/kg, individual animals 1-4
Field: concentration at 7 day. Provide a value for each of the compounds that follow.
Answers are plain numbers, in ng/mL.

{"smiles-str": "CC(C)CN(C[C@@H](O)[C@H](Cc1ccccc1)NC(=O)O[C@H]1CO[C@H]2OCC[C@H]21)S(=O)(=O)c1ccc2c(c1)OCO2", "concentration at 7 day [ng/mL]": 9.95}

Item `Cc1cc(/C=C/C#N)cc(C)c1Nc1ccnc(Nc2ccc(C#N)cc2)n1` : provide concentration at 7 day
0.421
